Origin of values: ChEMBL document CHEMBL1811872

biological target: Tryptophan 2,3-dioxygenase (Mus musculus); experiment: Inhibition of mouse TDO expressed in mouse P815B cells assessed as inhibition of tryptophan catabolism by measuring kynurenine production after 8 hrs by HPLC analysis
Sequence (P48776 whole entry): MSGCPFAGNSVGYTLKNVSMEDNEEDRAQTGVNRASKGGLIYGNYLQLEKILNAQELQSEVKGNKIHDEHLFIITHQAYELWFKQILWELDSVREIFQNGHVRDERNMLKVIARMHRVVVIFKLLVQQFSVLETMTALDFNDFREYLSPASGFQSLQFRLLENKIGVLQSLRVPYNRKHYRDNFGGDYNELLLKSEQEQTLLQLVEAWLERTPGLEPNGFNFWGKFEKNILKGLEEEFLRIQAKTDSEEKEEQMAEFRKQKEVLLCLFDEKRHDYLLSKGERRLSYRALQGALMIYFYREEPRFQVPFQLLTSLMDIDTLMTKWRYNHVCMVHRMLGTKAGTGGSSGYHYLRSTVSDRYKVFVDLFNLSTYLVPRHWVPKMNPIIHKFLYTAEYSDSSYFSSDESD
IC50 values, listed per item

Here are 5 molecules together with their reported answers.
| Smiles Notation | IC50 |
| --- | --- |
| c1ccc2c(-c3nnn[nH]3)c[nH]c2c1 | > 80 µM |
| COC(=O)c1ccc2[nH]cc(/C=C/c3cccnc3)c2c1 | > 200 µM |
| N#C/C=C\c1c[nH]c2ccccc12 | > 80 µM |
| Cc1ccc2[nH]cc(/C=C/c3cccnc3)c2c1 | > 200 µM |
| Brc1cccc2c(/C=C/c3cccnc3)c[nH]c12 | > 20 µM |

Sure, the documented IC50 for "COC(=O)c1ccc2c(/C=C/c3cccnc3)c[nH]c2c1" is > 200 µM

====

test: Cytotoxicity against mouse P815B cells […] by MTT assay; type: functional; conditions: read-out: LD50 (the source's name)
Readout Type: CC50

Here are 5 molecules together with their reported answers.
| Smiles Notation | CC50 |
| --- | --- |
| O=C(O)c1ccc2[nH]cc(/C=C/c3cccnc3)c2c1 | > 200 µM |
| Cc1cccc2c(/C=C/c3cccnc3)c[nH]c12 | > 200 µM |
| OC/C=C/c1c[nH]c2cc(F)ccc12 | 100 µM |
| Fc1ccc2[nH]cc(/C=C/c3cccnc3)c2c1 | > 80 µM |
| C/C=C/c1c[nH]c2ccccc12 | > 80 µM |

Attention now turns to another entry.
Sure, the documented CC50 for "Fc1ccc2c(/C=C/c3nnn[nH]3)c[nH]c2c1" is > 400 µM

====

target: Tryptophan 2,3-dioxygenase (Mus musculus); test: Inhibition of mouse TDO expressed in mouse P815B cells assessed as inhibition of tryptophan catabolism by measuring kynurenine production after 8 hrs by HPLC analysis
IC50 values, listed per item
Report the figure in µM without appending any unit label.

Sure, the documented IC50 for "COC(=O)/C=C/c1c[nH]c2cc(F)ccc12" is 2

Sure, the documented IC50 for "C(=C\c1c[nH]c2ccccc12)/c1nnn[nH]1" is 10

====

IC50 values, listed per item
target: Tryptophan 2,3-dioxygenase (Mus musculus); assay: Inhibition of mouse TDO expressed in mouse P815B cells assessed as inhibition of tryptophan catabolism by measuring kynurenine production after 8 hrs by HPLC analysis

| Smiles Notation | IC50 |
| --- | --- |
| COc1ccc2c(/C=C/c3cccnc3)c[nH]c2c1 | > 200 µM |

Sure, the documented IC50 for "COC(=O)c1cccc2[nH]cc(/C=C/c3cccnc3)c12" is > 200 µM

Sure, the documented IC50 for "OC/C=C/c1c[nH]c2cc(F)ccc12" is 80 µM

Sure, the documented IC50 for "Fc1ccc2c(/C=C/c3ccncc3)c[nH]c2c1" is 3 µM

Sure, the documented IC50 for "N#C/C=C/c1c[nH]c2ccccc12" is 13 µM

Sure, the documented IC50 for "Fc1ccc2c(/C=C/c3ccccn3)c[nH]c2c1" is 3 µM

Sure, the documented IC50 for "Fc1ccc2c(/C=C/c3cccc(Br)c3)c[nH]c2c1" is > 200 µM

Sure, the documented IC50 for "N#Cc1cccc(/C=C/c2c[nH]c3cc(F)ccc23)c1" is 1 µM

Sure, the documented IC50 for "C(=C\c1c[nH]c2ccccc12)/c1cccnc1" is 1 µM

Sure, the documented IC50 for "Fc1ccc(-c2n[nH]cc2/C=C/c2cccnc2)cc1" is > 200 µM

Sure, the documented IC50 for "N#C/C(=C\c1c[nH]c2cc(F)ccc12)C(=O)O" is > 80 µM

Sure, the documented IC50 for "O=C(O)c1ccc2[nH]cc(/C=C/c3cccnc3)c2c1" is > 200 µM

Sure, the documented IC50 for "Brc1ccc2c(/C=C/c3cccnc3)c[nH]c2c1" is > 200 µM

Sure, the documented IC50 for "CCOC(=O)/C(C#N)=C/c1c[nH]c2cc(F)ccc12" is > 80 µM

Sure, the documented IC50 for "N#C/C=C/c1c[nH]c2cc(F)ccc12" is 3 µM
